Target: Glutamate NMDA receptor; Grin1/Grin2a (Rattus norvegicus, UniProt P35439+Q00959)
Sequence (Q00959 whole entry, other chains not shown): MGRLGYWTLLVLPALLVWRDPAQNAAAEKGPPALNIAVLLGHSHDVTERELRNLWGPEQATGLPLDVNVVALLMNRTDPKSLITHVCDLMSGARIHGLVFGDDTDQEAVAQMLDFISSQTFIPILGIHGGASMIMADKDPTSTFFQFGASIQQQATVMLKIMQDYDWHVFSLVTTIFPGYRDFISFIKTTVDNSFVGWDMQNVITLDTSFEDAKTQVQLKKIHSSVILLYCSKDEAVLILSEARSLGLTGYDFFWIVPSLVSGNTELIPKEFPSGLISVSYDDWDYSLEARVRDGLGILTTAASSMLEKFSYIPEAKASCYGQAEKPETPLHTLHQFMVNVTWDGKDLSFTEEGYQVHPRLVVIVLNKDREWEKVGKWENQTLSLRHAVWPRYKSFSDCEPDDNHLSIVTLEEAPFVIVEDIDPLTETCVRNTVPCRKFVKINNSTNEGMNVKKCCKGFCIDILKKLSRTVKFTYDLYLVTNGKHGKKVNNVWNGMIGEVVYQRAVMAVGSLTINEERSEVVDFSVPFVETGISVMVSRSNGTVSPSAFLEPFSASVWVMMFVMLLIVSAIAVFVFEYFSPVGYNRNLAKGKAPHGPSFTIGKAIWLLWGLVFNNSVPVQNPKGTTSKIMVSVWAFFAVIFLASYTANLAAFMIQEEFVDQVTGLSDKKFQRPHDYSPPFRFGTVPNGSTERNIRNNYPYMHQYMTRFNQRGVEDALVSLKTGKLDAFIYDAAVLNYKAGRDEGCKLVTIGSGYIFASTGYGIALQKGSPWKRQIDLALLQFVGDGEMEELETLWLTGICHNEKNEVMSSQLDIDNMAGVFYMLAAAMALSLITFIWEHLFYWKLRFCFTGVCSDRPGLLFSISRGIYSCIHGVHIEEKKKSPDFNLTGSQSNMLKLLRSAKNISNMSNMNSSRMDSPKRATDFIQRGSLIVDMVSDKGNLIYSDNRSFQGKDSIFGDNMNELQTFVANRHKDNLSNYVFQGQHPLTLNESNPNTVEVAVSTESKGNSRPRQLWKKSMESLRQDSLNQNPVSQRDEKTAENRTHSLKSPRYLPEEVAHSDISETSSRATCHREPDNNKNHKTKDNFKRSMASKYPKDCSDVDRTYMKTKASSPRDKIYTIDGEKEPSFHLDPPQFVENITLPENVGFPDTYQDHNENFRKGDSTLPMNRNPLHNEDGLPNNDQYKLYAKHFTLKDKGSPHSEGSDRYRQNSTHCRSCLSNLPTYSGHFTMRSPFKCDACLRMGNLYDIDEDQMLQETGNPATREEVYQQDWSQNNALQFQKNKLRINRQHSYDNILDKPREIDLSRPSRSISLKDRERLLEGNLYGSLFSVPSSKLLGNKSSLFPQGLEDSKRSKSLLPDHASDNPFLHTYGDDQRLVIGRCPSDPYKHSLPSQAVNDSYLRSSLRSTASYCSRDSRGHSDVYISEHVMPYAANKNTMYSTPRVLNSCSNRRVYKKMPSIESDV
Assay: Antagonist activity at rat recombinant NR1-NR2A receptor expressed in Xenopus oocytes at holding potential of -40mV by two-electrode voltage-clamp electrophysiology
Assay type: functional, cell-based, Oocyte
Details: read-out: IC50
Quantity kind: IC50 (µM)
Value expressed in µM; do not type the unit.

Here is how some molecules turned out for IC50.
Molecule: O=C(O)c1ccc(-n2c(/C=C/c3ccccc3)nc3ccccc3c2=O)cc1
Assay system: Glutamate NMDA receptor; Grin1/Grin2a (Rattus norvegicus, UniProt P35439+Q00959)
IC50, µM: 84
//
Molecule: COc1ccc2nc(/C=C/c3ccc([N+](=O)[O-])cc3)n(-c3cccc(C(=O)O)c3)c(=O)c2c1
Assay system: Glutamate NMDA receptor; Grin1/Grin2a (Rattus norvegicus, UniProt P35439+Q00959)
IC50, µM: 238
//
Molecule: COc1ccc2nc(/C=C/c3cccc([N+](=O)[O-])c3)n(-c3ccc(C(=O)O)cc3)c(=O)c2c1
Assay system: Glutamate NMDA receptor; Grin1/Grin2a (Rattus norvegicus, UniProt P35439+Q00959)
IC50, µM: 229
//
Molecule: O=c1c2ccccc2nc(/C=C/c2cccnc2)n1-c1ccccc1
Assay system: Glutamate NMDA receptor; Grin1/Grin2a (Rattus norvegicus, UniProt P35439+Q00959)
IC50, µM: 40
//
Molecule: Cc1ccccc1/C=C/c1nc2ccccc2c(=O)n1-c1ccc(C(=O)O)cc1
Assay system: Glutamate NMDA receptor; Grin1/Grin2a (Rattus norvegicus, UniProt P35439+Q00959)
IC50, µM: 86

Lookup: Output IC50 of O=C(O)c1ccc(-n2c(/C=C/c3ccc(O)cc3)nc3ccccc3c2=O)cc1
Found: 38

Lookup: Report IC50 for O=C(O)c1ccc(-n2c(/C=C/c3cccc([N+](=O)[O-])c3)nc3cc(Cl)ccc3c2=O)cc1
Found: 32

* * *

Quick reference for pIC50 among some compounds
Biological target: Glutamate NMDA receptor; Grin1/Grin2c (Rattus norvegicus, UniProt P35439+Q00961)
Sequence (Q00961 whole entry, other chains not shown): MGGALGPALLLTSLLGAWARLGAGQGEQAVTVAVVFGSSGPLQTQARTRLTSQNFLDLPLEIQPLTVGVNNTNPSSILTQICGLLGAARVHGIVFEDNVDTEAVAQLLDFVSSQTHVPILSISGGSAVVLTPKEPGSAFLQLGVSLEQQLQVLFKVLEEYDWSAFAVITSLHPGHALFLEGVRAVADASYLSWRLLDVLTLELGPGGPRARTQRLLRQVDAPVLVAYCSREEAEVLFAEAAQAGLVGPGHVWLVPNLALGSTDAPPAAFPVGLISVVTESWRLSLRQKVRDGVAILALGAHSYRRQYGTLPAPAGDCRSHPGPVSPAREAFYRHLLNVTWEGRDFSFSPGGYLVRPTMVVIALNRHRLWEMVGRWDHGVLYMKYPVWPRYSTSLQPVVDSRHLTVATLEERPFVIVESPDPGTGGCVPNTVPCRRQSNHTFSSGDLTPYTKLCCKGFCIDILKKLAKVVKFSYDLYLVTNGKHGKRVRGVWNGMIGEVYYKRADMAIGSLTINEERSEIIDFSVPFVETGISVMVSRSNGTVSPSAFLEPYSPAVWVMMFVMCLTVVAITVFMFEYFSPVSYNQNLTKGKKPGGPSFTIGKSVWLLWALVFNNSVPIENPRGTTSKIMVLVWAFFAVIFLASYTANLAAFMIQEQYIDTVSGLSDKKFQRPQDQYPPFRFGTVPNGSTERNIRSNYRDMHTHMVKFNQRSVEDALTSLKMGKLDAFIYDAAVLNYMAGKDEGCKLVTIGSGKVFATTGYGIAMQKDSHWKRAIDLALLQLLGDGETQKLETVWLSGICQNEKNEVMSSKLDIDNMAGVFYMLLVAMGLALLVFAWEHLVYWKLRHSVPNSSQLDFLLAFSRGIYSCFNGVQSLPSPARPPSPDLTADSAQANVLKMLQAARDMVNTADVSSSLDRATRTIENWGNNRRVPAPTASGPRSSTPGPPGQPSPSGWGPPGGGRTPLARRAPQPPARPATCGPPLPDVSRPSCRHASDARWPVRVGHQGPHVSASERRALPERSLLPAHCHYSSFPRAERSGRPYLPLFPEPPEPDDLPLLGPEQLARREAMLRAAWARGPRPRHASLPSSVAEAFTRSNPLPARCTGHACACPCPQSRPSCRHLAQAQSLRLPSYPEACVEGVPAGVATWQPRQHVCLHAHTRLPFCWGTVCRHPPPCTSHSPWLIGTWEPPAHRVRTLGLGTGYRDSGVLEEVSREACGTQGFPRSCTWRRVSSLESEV
Assay: Antagonist activity at rat recombinant NR1-NR2C receptor expressed in Xenopus oocytes at holding potential of -40mV by two-electrode voltage-clamp electrophysiology
In textbook form, pIC50 equals minus log to base ten of the concentration in mol/L.

Worked examples follow.
Molecule: O=C(O)c1ccc(-n2c(/C=C/c3ccccc3)nc3ccc(I)cc3c2=O)cc1
Test result: 4.89
//
Molecule: COc1ccc2nc(/C=C/c3ccc([N+](=O)[O-])cc3)n(-c3ccc(C(=O)O)cc3)c(=O)c2c1
Test result: 4.89

From here, focus on the item given below.
Lookup: Please tell me the measured pIC50 for O=C(O)c1cccc(-n2c(/C=C/c3ccc([N+](=O)[O-])cc3)nc3ccc(I)cc3c2=O)c1 ; system: Glutamate NMDA receptor; Grin1/Grin2c (Rattus norvegicus, UniProt P35439+Q00961).
Found: 5.05

* * *

Biological target: Glutamate NMDA receptor; Grin1/Grin2b (Rattus norvegicus, UniProt P35439+Q00960)
Sequence (Q00960 whole entry, other chains not shown): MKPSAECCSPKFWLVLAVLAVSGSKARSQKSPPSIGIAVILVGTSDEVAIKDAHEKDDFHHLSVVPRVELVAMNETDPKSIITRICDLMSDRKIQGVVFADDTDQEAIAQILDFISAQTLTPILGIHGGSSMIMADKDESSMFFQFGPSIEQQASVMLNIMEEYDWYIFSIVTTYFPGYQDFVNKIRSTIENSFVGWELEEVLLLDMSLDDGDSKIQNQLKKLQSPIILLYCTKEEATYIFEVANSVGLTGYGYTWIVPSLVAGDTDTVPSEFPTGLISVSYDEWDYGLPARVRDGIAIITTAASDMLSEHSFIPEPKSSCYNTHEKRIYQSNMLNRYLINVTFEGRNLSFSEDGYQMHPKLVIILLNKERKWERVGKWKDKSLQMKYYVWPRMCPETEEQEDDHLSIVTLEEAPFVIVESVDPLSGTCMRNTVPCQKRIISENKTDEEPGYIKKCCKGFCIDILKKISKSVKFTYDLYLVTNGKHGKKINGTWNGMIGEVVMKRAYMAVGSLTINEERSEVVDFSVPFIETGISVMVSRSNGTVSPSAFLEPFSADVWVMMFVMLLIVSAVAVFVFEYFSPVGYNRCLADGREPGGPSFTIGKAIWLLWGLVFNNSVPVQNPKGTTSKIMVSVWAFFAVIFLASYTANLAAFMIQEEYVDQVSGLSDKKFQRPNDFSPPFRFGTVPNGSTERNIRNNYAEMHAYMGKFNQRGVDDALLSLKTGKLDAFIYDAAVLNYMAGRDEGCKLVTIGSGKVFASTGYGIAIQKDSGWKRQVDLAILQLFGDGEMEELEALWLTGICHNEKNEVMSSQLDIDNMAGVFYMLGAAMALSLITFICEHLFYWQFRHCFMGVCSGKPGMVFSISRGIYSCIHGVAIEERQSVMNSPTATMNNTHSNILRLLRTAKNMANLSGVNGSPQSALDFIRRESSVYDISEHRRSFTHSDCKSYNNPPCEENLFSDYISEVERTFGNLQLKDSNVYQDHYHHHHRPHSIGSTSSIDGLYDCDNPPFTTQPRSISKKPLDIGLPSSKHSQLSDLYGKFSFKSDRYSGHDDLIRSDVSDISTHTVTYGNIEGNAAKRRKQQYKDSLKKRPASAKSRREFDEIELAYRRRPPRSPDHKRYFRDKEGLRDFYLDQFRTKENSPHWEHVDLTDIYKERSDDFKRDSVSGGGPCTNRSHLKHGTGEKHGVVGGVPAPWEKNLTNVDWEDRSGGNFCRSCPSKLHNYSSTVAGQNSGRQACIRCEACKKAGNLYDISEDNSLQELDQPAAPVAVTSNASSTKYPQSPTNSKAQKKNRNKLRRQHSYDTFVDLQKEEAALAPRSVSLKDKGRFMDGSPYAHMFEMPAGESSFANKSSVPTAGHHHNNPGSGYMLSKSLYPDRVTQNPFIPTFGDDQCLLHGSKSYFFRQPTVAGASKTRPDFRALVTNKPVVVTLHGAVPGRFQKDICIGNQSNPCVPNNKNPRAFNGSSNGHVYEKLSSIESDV
Test: Antagonist activity at rat recombinant NR1-NR2B receptor expressed in Xenopus oocytes at holding potential of -40mV by two-electrode voltage-clamp electrophysiology
Assay type: functional, cell-based, Oocyte
Details: read-out: IC50
Quantity kind: IC50 (µM)
Write the value in µM as a bare number.

Molecule: Cc1cccc(/C=C/c2nc3ccccc3c(=O)n2-c2ccc(C(=O)O)cc2)c1
Assay system: Glutamate NMDA receptor; Grin1/Grin2b (Rattus norvegicus, UniProt P35439+Q00960)
IC50 (µM): 34

Lookup: Please respond with reported IC50 (system Glutamate NMDA receptor; Grin1/Grin2b (Rattus norvegicus, UniProt P35439+Q00960)) for COc1ccc2cc(/C=C/c3nc4ccccc4c(=O)n3-c3ccc(C(=O)O)cc3)ccc2c1 .
Found: 36

Lookup: Provide Glutamate NMDA receptor; Grin1/Grin2b (Rattus norvegicus, UniProt P35439+Q00960) IC50 reading for O=C(O)c1ccc(-n2c(/C=C/c3ccc(O)cc3)nc3ccccc3c2=O)cc1 .
Found: 35

Lookup: Fill in: IC50 on Glutamate NMDA receptor; Grin1/Grin2b (Rattus norvegicus, UniProt P35439+Q00960), entry O=C(O)c1ccc(-n2c(/C=C/c3cccc([N+](=O)[O-])c3)nc3c(Cl)cc(Cl)cc3c2=O)cc1
Found: 109

Lookup: GET IC50 where system = Glutamate NMDA receptor; Grin1/Grin2b (Rattus norvegicus, UniProt P35439+Q00960) and item = Cc1ccccc1/C=C/c1nc2ccccc2c(=O)n1-c1ccc(C(=O)O)cc1
Found: 93

Lookup: Report its IC50 with Glutamate NMDA receptor; Grin1/Grin2b (Rattus norvegicus, UniProt P35439+Q00960) as the test system: O=c1c2cc(I)ccc2nc(/C=C/c2cccnc2)n1-c1ccccc1[N+](=O)[O-]
Found: 105

Lookup: Quote Glutamate NMDA receptor; Grin1/Grin2b (Rattus norvegicus, UniProt P35439+Q00960) IC50 for entry COc1ccc(-n2c(/C=C/c3ccc([N+](=O)[O-])cc3)nc3ccccc3c2=O)cc1 .
Found: 98

Lookup: Identify measured IC50 obtained with Glutamate NMDA receptor; Grin1/Grin2b (Rattus norvegicus, UniProt P35439+Q00960) for C=CCOc1ccc(/C=C/c2nc3ccccc3c(=O)n2-c2ccc(C(=O)O)cc2)cc1 .
Found: 144

Lookup: Give Glutamate NMDA receptor; Grin1/Grin2b (Rattus norvegicus, UniProt P35439+Q00960) IC50 for the following molecule: O=C(O)c1ccc(-n2c(/C=C/c3ccc(C(F)(F)F)cc3)nc3ccccc3c2=O)cc1
Found: 55

Lookup: Would you please give the reported IC50 of COc1ccccc1-n1c(/C=C/c2ccccc2[N+](=O)[O-])nc2ccccc2c1=O with Glutamate NMDA receptor; Grin1/Grin2b (Rattus norvegicus, UniProt P35439+Q00960)?
Found: 7
